B1: Formin-binding protein 4, residues 200 to 261; numbered along this chain, Q8N3X1 (parent)
chain: SGWQYDTQCSLAGVGIEMGDWQEVWDENTGCYYYWNTQTNEVTWELPQYLATQVQGLQHYQP

variants of: B1; test: abundance fitness (aPCA) (normalised: wild type 0, dead -1); higher = more abundant; growth selection in yeast, the domain comes from the species named; settings: Homo sapiens
# if value of abundance fitness reaches -0.3, tag criterion met; if it stays below, tag criterion not met

S1A : criterion met
W25R : criterion met
Q61R : criterion met
Q55C : criterion met
E23Y : criterion not met
T7A : criterion met
L57D : criterion met
Y34A : criterion not met
L11W : criterion not met
Y60E : criterion met

Asked: Does T7F have a reported abundance fitness of at least -0.3?
Given back: criterion not met

Asked: # check: abundance fitness of G56Q is greater than or equal to -0.3
Given back: criterion met

Asked: Decide: is the reported value of abundance fitness for A51L equal to or greater than -0.3?
Given back: criterion not met

Asked: Hi, just wondering whether N40H shows abundance fitness of -0.3 or higher.
Given back: criterion met

Asked: Determine whether measured abundance fitness meets or exceeds -0.3 for D20H
Given back: criterion met
